- Tested on: Vesicular stomatitis virus
- TEST_DESCRIPTION: Antiviral activity against Vesicular stomatitis virus infected in human cervix carcinoma cells assessed as inhibition of virus-induced cytopathic effect at 0.32 to 100 uM
- Format: functional, organism-based
Activity calls are given as the source filed them. The rule behind the calls is not given here.
MEASUREMENT_LABEL: inhibition

Example results:
INSERT INTO assay_data (compound, assay_value) VALUES
  ('CC(C)Cc1ccc(C(C)C(=O)NNC(=O)NNC(=O)NOCc2ccccc2)cc1 (stereo unspecified)', 'inactive'),
  ('CC(C(=O)NNC(=O)NO)c1cccc(Oc2ccccc2)c1 (stereo unspecified)', 'inactive'),
  ('CC(C(=O)NNC(=O)NCC1CCCCC1)c1cccc(Cc2ccccc2)c1 (stereo unspecified)', 'inactive'),
  ('CC(C(=O)NN)c1cccc(Cc2ccccc2)c1 (stereo unspecified)', 'inactive'),
  ('CC(C(=O)NNC(=O)NO)c1cccc(Cc2ccccc2)c1 (stereo unspecified)', 'inactive');

Give measured inhibition for every item shown.
1. CC(C(=O)NNC(=O)NCc1ccccc1)c1cccc(Cc2ccccc2)c1 (stereo unspecified)
2. CC(C)Cc1ccc(C(C)C(=O)NNC(=O)NNC(=O)NO)cc1 (stereo unspecified)
3. CC(C)Cc1ccc(C(C)C(=O)NNC(=O)NCCc2ccccc2)cc1 (stereo unspecified)
4. O=C(NNC(=O)n1nnc2ccccc21)NOCc1ccccc1

Result:
1: inactive; 2: inactive; 3: inactive; 4: inactive

Consider the following items and state reported inhibition for each.
1. CC(C(=O)NNC(=O)NOCc1ccccc1)c1cccc(Oc2ccccc2)c1 (stereo unspecified)
2. CC(C(=O)NNC(=O)NC(c1ccccc1)c1ccccc1)c1cccc(Cc2ccccc2)c1 (stereo unspecified)

Result:
inactive
inactive
